compounds and their reported Papp
# assayNotes: Permeability of compound by PAMPA assay
# Type: ADME
# reportedConditions: read-out: permeability

The following compounds have reported results that may help.
compound	reading
CC1=C(C(=O)Nc2nncs2)C2(CCCC2)N=C(Nc2nc3ccccc3o2)N1	< 10 nm/s
CCOC(=O)N1C(Nc2nc3ccccc3o2)=NC(c2ccccc2Cl)C(C(=O)Nc2cc(C(=O)O)ccn2)=C1C (centres undefined)	< 10 nm/s
CCOC(=O)c1ccc(NC(=O)C2=C(C)NC(Nc3nc4ccccc4o3)=NC2c2ccccc2Cl)cc1 (centres undefined)	88 nm/s
COc1cccc(C2N=C(Nc3nc4ccc(F)cc4o3)NC(C)=C2C(=O)Nc2cc(C(=O)O)ccn2)c1Cl (centres undefined)	< 10 nm/s
CC1=C(C(=O)Nc2ccc(Cl)cc2)C(c2ccccc2Cl)N=C(Nc2nc3ccccc3o2)N1 (centres undefined)	20 nm/s
COC(=O)c1ccnc(NC(=O)C2=C(C)NC(Nc3nc4ccc(F)cc4o3)=N[C@@H]2c2ccccc2Cl)c1	< 74 nm/s

Give the reported Papp for this compound. CCOc1ccc(C2N=C(Nc3nc4ccc(F)cc4o3)NC(C)=C2C(=O)Nc2cc(C(=O)O)ccn2)c(Cl)c1 (centres undefined)
< 10 nm/s

Give the reported Papp for this compound. "CC1=C(C(=O)Nc2cc(C(=O)O)ccn2)[C@@H](c2ccccc2Cl)N=C(Nc2nc3ccccc3o2)N1"
< 10 nm/s

Give the reported Papp for this compound. CC1=C(C(=O)Nc2ccc(C#N)cc2)C(c2ccccc2Cl)N=C(Nc2nc3ccccc3o2)N1 (centres undefined)
< 187 nm/s

* * *

# assayNotes: Stability of compound in rat microsomes assessed as half-life
# Type: ADME, Microsome
experimentalEndpoint: half-life (min)

[I] CC1=C(C(=O)Nc2cccnc2)C(c2ccccc2Cl)N=C(Nc2nc3ccccc3o2)N1 (centres undefined)
[II] CC1=C(C(=O)Nc2ccccc2Cl)C(c2ccccc2Cl)N=C(Nc2nc3ccccc3o2)N1 (centres undefined)
[III] CCn1cc(CNC(=O)C2=C(C)NC(Nc3nc4ccc(F)c(N)c4o3)=N[C@@H]2c2ccc(C)cc2Cl)cn1
[IV] COC(=O)c1ccc(NC(=O)C2=C(C)NC(Nc3nc4ccccc4o3)=NC2c2ccccc2Cl)cn1 (centres undefined)
Provide the items ranked by increasing half-life. Write the labels in rank order as requested.
IV, III, I, II

[a] CC1=C(C(=O)NCc2cnn(C)c2)C(c2ccc(C)cc2Cl)N=C(Nc2nc3ccc(F)c(N)c3o2)N1 (centres undefined)
[b] CC1=C(C(=O)NCc2cnn(C)c2)C(c2ccccc2Cl)N=C(Nc2nc3ccc(F)cc3o2)N1 (centres undefined)
Please state the entry with greater half-life among a and b . # respond with the chosen item's label
b

[A] CC1=C(C(=O)NCc2ccccn2)C(c2ccccc2Cl)N=C(Nc2nc3ccccc3o2)N1 (centres undefined)
[B] COC(=O)c1cccc(CNC(=O)C2=C(C)NC(Nc3nc4ccccc4o3)=NC2c2ccccc2Cl)c1 (centres undefined)
Input pair: A , B . Output: entry with lower half-life. # respond with the chosen item's label
B

* * *

# assayNotes: Stability of compound in rat microsomes assessed as half-life
# Type: ADME, Microsome
experimentalEndpoint: half-life (min)

[1] CC1=C(C(=O)NCc2cnn(C)c2)C(c2ccc(Cl)cc2Cl)N=C(Nc2nc3cccc(N)c3o2)N1 (configuration not stated)
[2] CC1=C(C(=O)NCc2nc3ccccc3n2C)C(c2ccccc2Cl)N=C(Nc2nc3ccccc3o2)N1 (configuration not stated)
Input pair: 1 , 2 . Output: entry with lower half-life. # respond with the chosen item's label
2
(2: 4.52 min, 1: 17.8 min)

[1] COC(=O)c1ccc(CNC(=O)C2=C(C)NC(Nc3nc4ccccc4o3)=NC2c2ccccc2Cl)cc1 (configuration not stated)
[2] CC1=C(C(=O)NCc2cnn(C)c2)C(c2ccc(C)cc2Cl)N=C(Nc2nc3cccc(N)c3o2)N1 (configuration not stated)
[3] COC(=O)c1ccnc(NC(=O)C2=C(C)NC(Nc3nc4ccc(F)cc4o3)=N[C@@H]2c2ccccc2Cl)c1
[4] CC1=C(C(=O)NCc2cn(C)cn2)[C@H](c2ccccc2Cl)N=C(Nc2nc3ccccc3o2)N1
# desc sort on half-life across 4 compounds Write the labels in rank order as requested.
3, 2, 1, 4

[1] COC(=O)Cc1cccc(NC(=O)C2=C(C)NC(Nc3nc4ccccc4o3)=NC2c2ccccc2Cl)c1 (configuration not stated)
[2] CC1=C(C(=O)NCc2ccccc2CO)C(c2ccccc2Cl)N=C(Nc2nc3ccccc3o2)N1 (configuration not stated)
Input pair: 1 , 2 . Output: entry with lower half-life. # respond with the chosen item's label
2
(2: 5.09 min, 1: 10.3 min)

* * *

# assayNotes: Stability of compound in rat microsomes assessed as half-life
# Type: ADME, Microsome
experimentalEndpoint: half-life

The following compounds have reported results that may help.
compound	half-life
CC1=C(C(=O)Nc2nnc(-c3cccnc3)s2)C(c2ccccc2Cl)N=C(Nc2nc3cc(F)ccc3o2)N1 (centres undefined)	> 30 min
CCOC(=O)c1nnc(NC(=O)C2=C(C)NC(Nc3nc4ccccc4o3)=NC2c2ccccc2Cl)s1 (centres undefined)	3.16 min
CC1=C(C(=O)Nc2ccc(C(=O)O)nc2)C(c2ccccc2Cl)N=C(Nc2nc3ccccc3o2)N1 (centres undefined)	> 30 min
CC1=C(C(=O)Nc2nncs2)C2(Cc3ccccc32)N=C(Nc2nc3ccccc3o2)N1 (centres undefined)	> 30 min
CC1=C(C(=O)Nc2cc(C(=O)O)ccn2)C(c2ccc(C)cc2Cl)N=C(Nc2nc3c(o2)CCCC3)N1 (centres undefined)	> 30 min
CC1=C(C(=O)Nc2cc(N(C)C)ccn2)C(c2ccc(C)cc2Cl)N=C(Nc2nc3cccc(N)c3o2)N1 (centres undefined)	11.7 min
CC1=C(C(=O)Nc2cc(C(=O)O)ccn2)C(c2cccc(F)c2Cl)N=C(Nc2nc3ccc(F)cc3o2)N1 (centres undefined)	< 10 min
CN(C)CCNC(=O)C1CC(=O)C2=C(C1)NC(Nc1nc3ccccc3o1)=NC2c1ccccc1Cl (centres undefined)	> 30 min
CCn1cc(CNC(=O)C2=C(C)NC(Nc3nc4cccc(N)c4o3)=NC2c2ccc(C)cc2Cl)cn1 (centres undefined)	11.3 min
CC1=C(C(=O)Nc2cc(C(=O)O)ccn2)[C@H](c2ccccc2Cl)N=C(Nc2nc3ccc(F)cc3o2)N1	> 30 min

Give the reported half-life for this compound. CC1=C(C(=O)Nc2cc(C(=O)O)ccn2)C(c2ccccc2Br)N=C(Nc2nc3ccc(F)cc3o2)N1 (centres undefined)
> 30 min

Give the reported half-life for this compound. "CC1=C(C(=O)Nc2nncs2)C2(CCCC2)N=C(Nc2nc3ccccc3o2)N1"
> 30 min

Give the reported half-life for this compound. CC1=C(C(=O)Nc2nncs2)C(c2ccccc2C)N=C(Nc2nc3ccccc3o2)N1 (centres undefined)
> 30 min

Give the reported half-life for this compound. CC1=C(C(=O)Nc2ccc(N3CCNCC3)cc2)C(c2ccccc2Cl)N=C(Nc2nc3ccccc3o2)N1 (centres undefined)
8.63 min

* * *

# assayNotes: Stability of compound in rat microsomes assessed as half-life
# Type: ADME, Microsome
molecules and their reported half-life

The following molecules have reported results that may help.
molecule	reading
CC1=C(C(=O)Nc2cc(C(=O)O)ccn2)C(c2ccccc2Cl)N=C(Nc2nc3cccc(Cl)c3o2)N1 (centres undefined)	> 30 min
CC1=C(C(=O)Nc2nnc(-c3cccnc3)s2)C(c2ccccc2Cl)N=C(Nc2nc3ccc(F)cc3o2)N1 (centres undefined)	> 30 min
CC1=C(C(=O)Nc2nnc(-c3cccnc3)s2)C(c2ccccc2Cl)N=C(Nc2nc3ccccc3o2)N1 (centres undefined)	> 30 min
CC1=C(C(=O)Nc2ccccc2CO)C(c2ccccc2Cl)N=C(Nc2nc3ccccc3o2)N1 (centres undefined)	7.71 min
CCOC(=O)C1=C(C(C)C)NC(Nc2nc3ccccc3o2)=NC1c1ccccc1Cl (centres undefined)	5.75 min

Give the reported half-life for this molecule. CCOC(=O)c1ccc(NC(=O)C2=C(C)NC(Nc3nc4ccccc4o3)=NC2c2ccccc2Cl)cc1 (centres undefined)
> 30 min

Give the reported half-life for this molecule. CC1=C(C(=O)N(C)c2ccccc2)C(c2ccccc2Cl)N=C(Nc2nc3ccccc3o2)N1 (centres undefined)
1.18 min

Give the reported half-life for this molecule. CC(C)CC1=C(C(=O)Nc2nncs2)C(c2ccccc2Cl)N=C(Nc2nc3ccccc3o2)N1 (centres undefined)
> 30 min

Give the reported half-life for this molecule. CC1=C(C(=O)Nc2cccc(CO)c2)C(c2ccccc2Cl)N=C(Nc2nc3ccccc3o2)N1 (centres undefined)
> 30 min

Give the reported half-life for this molecule. CC1=C(C(=O)Nc2cc(C(=O)O)ccn2)C(c2ccccc2Cl)N=C(Nc2nc3cc(N)ccc3o2)N1 (centres undefined)
> 30 min
